- target entity: HLA-DRB1*04:01 (Homo sapiens, UniProt P01903+P01911, A100K/A169T/F76Y/I96L/K127E/L162R/M171V/N62H/P40V/Q125Y/R42H/S133A/S149N/S66Y/V115G/V209L/W38E)
- Construct: EBV transformed homozygous cell lines were used as sources of MHC molecules; endogenous in cells; host or cells: EBV transformed homozygous cell lines
- test name: HLA class II peptide binding, inhibition of radiolabeled peptide binding to purified MHC
- condition info: citrullinated 15-mer (X); purified MHC, inhibition of radiolabeled peptide binding; dash = IC50 >40,000 nM; read-out: DRB1*04:01 binding capacity, Cit peptide (IC50 nM)
Square brackets hold non-standard residues; d marks the D form. Peptide text beside a SMILES is read from it. Cit = NC(=O)NCCC[C@H](N)C(=O)O
observable: IC50 (nM)
The reply should be a number in nM, with the unit left off.

INSERT INTO results (molecule, obs_value) VALUES
  ('CC(C)C[C@H](NC(=O)[C@H](CC(C)C)NC(=O)[C@H](CCCNC(N)=O)NC(=O)[C@@H](NC(=O)CNC(=O)[C@@H]1CCCN1C(=O)[C@@H](NC(=O)[C@H](CO)NC(=O)[C@H](CO)NC(=O)[C@H](CCCNC(=N)N)NC(=O)[C@H](CC(C)C)NC(=O)[C@H](CCCNC(=N)N)NC(=O)[C@@H](NC(=O)[C@H](C)NC(=O)[C@@H](N)CO)C(C)C)C(C)C)C(C)C)C(=O)O [SAVRLRSSVPGVXLL] (H-SAVRLRSSVPGV[Cit]LL-OH)', 641);

Now for the molecule whose IC50 we want.
IC50 measured on CC[C@H](C)[C@H](NC(=O)[C@H](Cc1ccc(O)cc1)NC(=O)[C@H](CC(N)=O)NC(=O)[C@H](C)NC(=O)[C@H](Cc1ccccc1)NC(=O)[C@H](CCCNC(N)=O)NC(=O)[C@H](CC(=O)O)NC(=O)[C@H](CC(N)=O)NC(=O)[C@H](CC(C)C)NC(=O)[C@H](CCC(=O)O)NC(=O)[C@H](CCC(N)=O)NC(=O)[C@H](CC(C)C)NC(=O)[C@@H](N)CCC(=O)O)C(=O)N[C@@H](CC(=O)O)C(=O)N[C@@H](CCCCN)C(=O)O = 26700

These data points were gathered from paper PMC5421785.
